- Experiment Description: Positive allosteric modulator activity at human T1R2/T1R3 expressed in PEAKrapid cells assessed as potentiation of sucrose-induced intracellular calcium influx by measuring sucrose EC50 at 50 uM measured for 120 secs by fluorescence based assay (Rvb = 31.7 mM)
EC50 values for the compounds below.
Numeric answer only, unit mM assumed.

Here are 2 compounds together with their reported answers.
Nc1c(C(=O)O)cncc1-c1cccs1
21
Nc1c(C(=O)O)cncc1-c1ccco1
16.8

Turning now to a further compound:
Input Nc1c(C(=O)O)cncc1-c1ccccc1 . Output EC50: 21.5

---

- Experiment Description: Positive allosteric modulator activity at human T1R2/T1R3 expressed in PEAKrapid cells assessed as potentiation of sucrose-induced intracellular calcium influx by measuring sucrose EC50 at 30 uM measured for 120 secs by fluorescence based assay (Rvb = 31.7 mM)
pEC50: −log10 of the molar value.
Entry flag: Criterion met if pEC50 reaches 2; Criterion not met if it does not.

Here are 3 molecules together with their reported answers.
CC(C)(CC(=O)Nc1cncc(C(=O)O)c1N)NC(=O)[C@@H](N)C1CCCCC1
Criterion met
CC(C)CC(=O)NCc1ccc(-c2cncc(C(=O)O)c2N)o1
Criterion not met
Nc1c(NC(=O)CCCCCCNC(=O)[C@@H](N)C2CCCCC2)cncc1C(=O)O
Criterion not met

Attention now shifts to the item below.
[in] Could you tell me if the measured pEC50 of Nc1c(NC(=O)CCCNC(=O)[C@@H](N)C2CCCCC2)cncc1C(=O)O reaches 2 or more?
[out] Criterion not met
